experiment: yeast display, Sf9 membrane polyspecificity reagent, FACS + sequencing; frameworks hold sequencing errors
measure: polyreactivity (PSR sort gate)

{"columns": ["macromolecule.sequence", "obs.value"],
 "data": [
  ["QVQLVESGGGLVQAGGSLRLSCAASGRIFGGNAMGWSRQAPGKERELVAAISWSGGSTYADSVKGRFTISRDNAKNTVYLQMNSLKPEDTAVYYCATRLVKYYYYDYRTYGRRYDYWGQGTQVTVSS", "high polyreactivity"],
  ["QVQLVESGGGLVQAGGSLRLSCAATGRTLPPNAMGSYRQAPGKERELVAGITWSGGSTYYADSVKGRFTISRDNAKNTVYLQMNSLKPEDTAVYYCAASRSFPGYGLYYYWGQGTQVTVSS", "low polyreactivity"],
  ["QVQLVESAGGLVQAGGSLRLSCAASGFIFGGNAMGWYRQAPGKERELVAAITARSGSTYYADSVKGRFTISRDNAKNTVYLQMNSLKPEDTAVYYCATPVYRSTYEYDYWGQGTQVTVSS", "low polyreactivity"],
  ["QVQLVESGGGLVQAGGSLRLSCAASGGTFRPNAMGWYRQAPGKERELVAAITRSGGSTYYADSVKGRFTISRDNAKNTVYLQMNSLKPEDTAVYYCARDLREWGQGTQVTVSS", "low polyreactivity"],
  ["QVQLVESGGGLVQAGGSLRLSCAASGRTFGYYGMGWYRQAPGKERELVASINFSSGSTFYADSVKGRFTISRDNAKNTVYLQMNSLKPEDTAVYYCAARAKAVRSYAYNYWGQGTQVTVSS", "low polyreactivity"],
  ["QVQLVESGGGLVQAGGSLRLSCAASGRIFQYNAMGWYRQAPGKESELVAAIRRGGGSTYYADSVKGRFTISRDNAKNTVYLQMNSLKPEDTAVYYCAARRKRVSFYPEYDYWGQGTQVTVSS", "low polyreactivity"],
  ["QVQLVESGGGLVQAGGSLRLSCAAYGSTLAGYAMGWYRQAPGKERELVAAIDWTGGSTTYADSVKGRFTISRDNAKNTVYLQMNSLKPEDTAVYYCNVDLGVNGDYWGQGSQVTVSS", "low polyreactivity"],
  ["QVHLVESGGGLVQAGGSLRLSCAASGSIFVPYAMGWYRKAPGKERELVAAITYSDGCTYYADSVKGRFTMSRDNAKNTVYLQMNSLKPEDTAVYYCATYPQYYFRYDYWGQGTQVTVSS", "high polyreactivity"],
  ["QVQLVESGGGLVQAGGSLRLSCAASGFTFYRNAMGWYRQAPWKERELVATITRSGGSKYYADSVKGRFTISRDNAKNTVYLQMNSLKPEDTEVYYCNDAISGVLVHGNYWGQGTQVTVSS", "low polyreactivity"],
  ["QVQLVESGGGLVQAGGSLRLSCAASGRIFYKNVMGWYRQAPGKESELVATITRRGGRTFYADSVKGRFTISRDNAKNTVYLQMNSLKPEDTAVYYCATRRRIRSSFYYDIDYWGQGTQVTVSS", "high polyreactivity"],
  ["QVQLVESGGGLVQAGGSLRLSCAASGSIFYIYAMGWYRQAPGKERELVATISHRGGSTYYADSVKGRFTISRDNAKNTVYLQMNSLKPEDTAVYYCAARSYYSWGRPLPSFNYWGQGTQVTVSS", "high polyreactivity"],
  ["QVQLVESGGGLVQAGGSLRLSCAASGITFRGYAMGWYRQAPGKERELVATISSGGSTNYADSVKGRFTISRDNAKNTVDLQRISLKPEDTAVYYCNAVYRRGYGYWGQGTQVTVSS", "high polyreactivity"],
  ["QVQLVESGGRLVQAGGSLRLSCAASGSIFYYNVMGWYRQAPGKERELVAAIDIDGSTYYADSVKGRFTISRDNAKNTVYLQMNSLKPEDTAVYYCAADVHTPALYTYAAGDYWGQGTQVTVSS", "low polyreactivity"],
  ["QVQLVESGGGLVQAGGSLRLSCAASGRTFGAYAMGWYRQAPGKERELVASISRSGGTTYYADSVKGRFTISRDNAKNTVYLQMNSLKPEDTAVYYCAAQYVRYGHYYWGQGTQVTVSS", "high polyreactivity"],
  ["QVQLVESGGGLVKAGGSLRLSCAASGRTFRYNAMGWYRQPPGKERELVAVINSNGGSTYYADSVKGRFTISRDNAKNTVYLQMNSLKPEDTAVYYCAADYIRIQEYDYWGQGTQVTVSS", "low polyreactivity"],
  ["QVQLVESGGGLVQAGGSLRLSCAASGSIIDYYAMGWYRPAPGKERELVAAISESSDSTYYADSVKGRFTISRDNAKNTVYLQMNSLTPEDTAVYYCAADSLTPKSASDYWGQGTQVTVSS", "low polyreactivity"],
  ["QVQLVESGGGLLQAGGSLRLSCAASGFTFQYNAMGWYRQAPGKERELVAAISRSGTSTYYADSVKGRFTISRDNAKNTVYLQMNSLKPEDTGVYYCNAYYLSGSVYWTGDIYDYWGQGTQVTVSS", "high polyreactivity"],
  ["QVQLVESGGGLVQAGGSLRLSCAASGFTLISYDMGWYRPSPGKERELVAGISSGDSTDYADSVKGRFTISRDNAKNTVYLQMNSLKPEDTAVYYCAATWYGYYSRYDFYYWGQGTQVTVSS", "low polyreactivity"],
  ["QVHLVESVGGLVQAGGSLRLSCAASGRIIYTYAMGWYIQAPGKERELVAAISWSGGSTYYADSVKGRFTISRDNAKNTVYLQMNSLKPEDTAVYYCNAAYYGYENLSKRGYWGQGTQVTVSS", "high polyreactivity"],
  ["QVQLVESVGGLVQEGGSLRLSCDASGSIFLYAMGWYRQAPGKERELVAAINRGGGSTYYADSVKGRFTISRDNAKNTVYLEMNSLKPEVTAVYYCAVVYLLPRYWWRYDYWGQGTQVTVSS", "low polyreactivity"],
  ["QVQRVESGGGLVQAGGSLRLSCAASGLIFGGYAMGWYRQAPGKERELVAAITSGGSTKYADSVKGRFTISRDNAKNTVYLQMNSLKPEDTAVYYCAASGWRNWWSARNYYWGQGTQVTVSS", "low polyreactivity"]
]}

----------
experiment: yeast display, Sf9 membrane polyspecificity reagent, FACS + sequencing; frameworks hold sequencing errors
measure: polyreactivity (PSR sort gate)

{"columns": ["macromolecule.sequence", "obs.value"],
 "data": [
  ["QVQLVESGGGLVQAGGSLRLSCAASGSIFSYYAMGWYRQAPGKERELVAAISGDSGRTYYADSVKGRFTISRDNAKNTVYLQMNSLKPEDTAVYYCNARVAYRYRTGYDYWGQGTQVTVSS", "high polyreactivity"],
  ["QVQLVESGGALVQAGGSLRLSCAASGIIFYSYAMGWYRQAPGKERELVAAISNNGGSTYADSVKGRFTISRDNAKNSVYLQMKSVKPEDTAVYYCAADPTGGVGFDGYYWGQGTQVTVSS", "low polyreactivity"],
  ["QVQLVESGGGLVQAGGSLRLSCAASGRTSVLYAMGWYRQAPGKEREFVAAITWNSGSTYYADSVKGRFTISRDNAKNTVYFQMNSLNPEDTAGYYCAADGLSYYVIRFDYWGQGTQVTVSS", "low polyreactivity"],
  ["QVQLVESGGCLVQAGGSLRLSCAASGSIFLYNAMGWYRQAPGKERELVAAIPYSGGRTYYADSVKGRFTISRDNAKNTVSFQMNSLKPEDTAFYYCAVKSFSGHGDYWGQGTQVTVSS", "low polyreactivity"],
  ["QVQLAESGGGLVQAGGSLRLSCAASGRTFSQYGMGWYRQAPGKERELVARIRRSGGSTYYADSVKGRFTISRDNAKNTVYLQMNSLKPEDTAVYYCNADGQPYTRYGYWGQGTRVTVSS", "high polyreactivity"],
  ["QVQLVESGGGLVQAGGSLRLSCAASGRTFRKYAMGWYRQAPGKERELVAAISWSGGSTYYANSVKGRFTISRDNAKNTVYLQMNSLKPEDTAVYYCAAVPVHTGSLYWGFTTGYDYWGQGTKVTVSS", "low polyreactivity"],
  ["QVQHVESRGGLVQAGGSLRLSCAASGRTFQANAMGCYRQAPGKERELVAAITGRGGTTYYADSVKGRFTISRDNAKNTVYLQMNSLKPEDTAVYYCARALSGYGFWGYEYWGQGTQVTVSS", "low polyreactivity"],
  ["QVQLVESGGGLVQARGSLRLSCAAYRITFGWYAMGWYRQAHAKERELVASISSSGSTNYADSVKGRFTISRDNAKNTVYLQMNSLKPEDTAVYYCNKDYRRRHYYIYVIEGDYWGQGTQVTVSS", "low polyreactivity"],
  ["QVQLEESGGGLVQAGGSLRLSCAASGYIFRFYTMGWYRQAPGKERELVAAISSGGSTNYADSVKGRFTISRANAKNTVYLQMNSLKPEDTAVYYCAARFYSRYYWGQGTQVTVSS", "low polyreactivity"],
  ["QLQLVESGGGLVQAGGSLRLSCASSGFTLTYAMGWDRQAPGKERELVAAISSSGVRTYYADSVKGRFTISRDNAKNTVYLQKNSLKPEDTALYYCNAFIHGSRSYISDYYWGQGTQVTVSS", "high polyreactivity"],
  ["QVQLVESGGGLVQAGGSLRLSCAASGSIFYYYAMGWDRQAPGKERELVAGITGSGGRTYYADSVKGRFTISRDNAKNTVYLQMNSLKPEDTAVYYCAATRRDSTGSLYYYWGQGTQVTVSS", "high polyreactivity"]
]}
